# Measured On: hCCR2b (Homo sapiens, UniProt P41597)
# Sequence (P41597 1-360 isoform P41597-2): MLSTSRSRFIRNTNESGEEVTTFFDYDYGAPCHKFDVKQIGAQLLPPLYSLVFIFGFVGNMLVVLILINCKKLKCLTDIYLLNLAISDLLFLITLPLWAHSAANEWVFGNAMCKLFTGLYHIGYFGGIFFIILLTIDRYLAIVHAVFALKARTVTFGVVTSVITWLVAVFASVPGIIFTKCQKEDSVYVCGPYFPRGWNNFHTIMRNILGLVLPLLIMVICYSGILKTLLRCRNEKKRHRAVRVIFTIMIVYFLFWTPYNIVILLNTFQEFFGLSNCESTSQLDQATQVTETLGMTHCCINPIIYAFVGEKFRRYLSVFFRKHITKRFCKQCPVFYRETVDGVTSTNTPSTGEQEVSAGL
# Assay Details: CCR2 binding assay ([125I]MCP-1, SPA, CHO cell membranes)
# Set-up: expressed in transfected cells; host or cells: CHO cells (membrane preparation)
# Test Conditions: membranes from CHO cells expressing hCCR2b, 50 pM [125I]MCP-1; read-out: Binding hCCR2 (Ki)
Examples of compounds with documented Ki follow.

CCN1CCC2(CC1)OC(=O)C(C)=C2C(=O)N1CCc2cccc(C(F)(F)F)c2C1 = 500 to 2000 nM

Q. Field: Ki (hCCR2b (Homo sapiens, UniProt P41597)). Entry: CC1=C(C(=O)N2CCc3ncc(C(F)(F)F)cc3C2)C2(CCN(CCF)CC2)OC1=O
A. < 50 nM

Q. Provide the documented Ki with hCCR2b (Homo sapiens, UniProt P41597) as the system for CO[C@@H]1COCC[C@@H]1N1CCC2(CC1)OC(=O)C(C)=C2C(=O)N1CCc2ncc(C(F)(F)F)cc2C1 (single isomer, unassigned)
A. 100 to 500 nM
